Test system: CA1 neurons (rat hippocampal slices)
Experiment: Inhibition of evoked synaptic field potential of CA1 neurons in hippocampal slices, before and after L-quisqualic acid exposure
Format: cell-based, rat (male Sprague-Dawley)
Conditions: CA1 region; after 4-minute exposure of slices to 16 μM L-quisqualic acid; read-out: IC50 Values ± SEM after quisqualic acid
pIC50: −log10 of the molar value.

>  <compound>
N[C@@H](CC1CC(=O)NC1=O)C(=O)O (mixture of isomers)

>  <target of assay>
CA1 neurons (rat hippocampal slices)

>  <pIC50>
2.17

$$$$

----------
Test system: CA1 neurons (rat hippocampal slices)
Assay: Inhibition of evoked synaptic field potential of CA1 neurons in hippocampal slices, before and after L-quisqualic acid exposure
Type: cell-based, rat (male Sprague-Dawley)
Conditions: Rattus norvegicus, Neuron, 4 min, read-out: IC50 Values ± SEM after quisqualic acid
pIC50: −log10 of the molar value.
parameter: pIC50

>  <molecule>
N[C@H](Cn1oc(=O)[nH]c1=O)C(=O)O [D-quisqualic acid, reference compound]

>  <numeric value>
5.00

$$$$
